Assay: Hydrolytic stability of esters 1–5 in aqueous potassium phosphate buffer, monitored by 1H and 19F NMR
Assay type: physicochemical
Settings: aqueous potassium phosphate buffer, pH 7, extrapolated from pH 11 value; read-out: half-life extrapolated to pH 7.0 (converted)
Metric name: half-life at 0.5 mM (days)
Record the value in days, omitting the unit from your answer.

What measured half-life at 0.5 mM goes with CC(=O)N1CCC[C@H]1C(=O)OCC(F)F [compound 4, 2,2-Difluoroethyl N-acetylprolinate] ? 137
